Value source: ChEMBL document CHEMBL1201862

- Test system: RPMI-8226
- protocol: NCI tumour cell line growth inhibition, 48 h
Activity calls are given as the source filed them. Cut-off read from the data, not from the text of the source: active = GI50 up to about 1.1 µM and inactive = higher.
Catalogue of compounds with associated GI50

Dear colleague, I am looking for the recorded GI50 of the following compound: COc1ccc(CC2c3cc(OC)c(OC)cc3CC[N+]2(C)C)cc1OC (stereo unspecified)
> 100 µM (inactive)

Look up GI50 for this compound: CC(C)=NN/C(=N\c1ccc(Cl)cc1)NS(=O)(=O)c1cc(Cl)c(Oc2ccc([N+](=O)[O-])cc2Cl)c(Cl)c1
29.6 µM (inactive)

* * *

- System: EKVX
- protocol: NCI tumour cell line growth inhibition, 48 h
The source made the active and inactive calls. Rule as the data show it: active = GI50 up to about 1.1 µM and inactive = higher.
parameter measured: GI50

Recorded results for 5 molecules are shown here.
Quick one: GI50 for CC(C)(C)OC(=O)NC(Cc1ccc(OCc2ccccc2)cn1)C(=O)N1CCCC1 (stereo unspecified) ?
66.8 µM (inactive)

Using the record for CS(=O)(=O)N1CC(CI)c2ccc(O)cc21 (stereo unspecified) , report its GI50.
3.74 µM (inactive)

Please report the recorded GI50 for Oc1c(OCc2nnc(CCCCCCCCc3nnc(COc4ccc5ccccc5c4O)o3)o2)ccc2ccccc12 .
> 100 µM (inactive)

Consider the molecule C[n+]1c2ccccc2n2c3ccccc3c(NCCCn3ccnc3)c(C#N)c21 and give its measured GI50.
4.78 µM (inactive)

Could you share which GI50 value was measured for Brc1ccccc1C1SCc2nc3ccccc3n21 (stereo unspecified) ?
17.3 µM (inactive)

Please look at the following molecule next.
Reported GI50 for COC1=C(C)C(=O)c2c(c(COC(N)=O)c3n2CC2C3N2C)C1=O (stereo unspecified) : what is it?
0.14 µM (active)

* * *

- Test system: SK-MEL-5
- protocol: NCI tumour cell line growth inhibition, 48 h
Active and inactive are the calls of the source. Rule as the data show it: active = GI50 up to about 1.1 µM and inactive = higher.
Pick one and only one: T = active, F = inactive

Answer briefly: the call reported for C#CCNC(=O)N(CC#C)N=O in this assay.
F

Query: recorded result category for OC1(c2ccc(Cl)cc2)c2ccccc2C2=NCc3ccccc3CN21 (stereo unspecified) in this test
F

Dear all, I need the recorded test outcome for Cc1ccc(C)c(NC(=O)C(=O)C(C(=O)c2ccc3ccccc3c2)C2OC(=O)c3ccccc32)c1 (stereo unspecified) , thank you.
F

Others:
Outcome? COc1ccc(C2S/C(=C\c3cccc(O)c3)C(=O)N2NC(=O)Cc2ccccc2)cc1 (stereo unspecified)
F

What is the recorded call for this compound in the test? CC(C)(C)c1ccc(-c2nc3ccc([N+](=O)[O-])cc3c(=O)o2)cc1
F

Lab log entry: COc1ccc(C[C@H]2NC[C@H](OC(C)=O)[C@H]2OC(C)=O)cc1 — outcome as called in the assay?
T

Which outcome was entered for the compound N/N=C1/C(=N/O)CCc2nonc21 in this test?
F

Which result was noted for this compound in the test: CCCCCC/C=C1\CCC(CN2CCCC2)C1=O (stereo unspecified)
F

* * *

// values below are reported GI50
- Tested on: NCI-H460
- protocol: NCI tumour cell line growth inhibition, 48 h
Active and inactive are the calls of the source. No stated cut-off is given here; in the data, active = GI50 up to about 1.1 µM and inactive = higher.

Below, each entry is followed by its recorded GI50 result.
Please look up its GI50: O=C(CCN1CCCCC1CCO)Nc1ccc2c(c1)C(=O)c1ccc(NC(=O)CCN3CCCCC3CCO)cc1C2=O (stereo not given)
3.6 µM (inactive)

Given the entry C[C@]12C=CC(=O)C=C1[C@@H](F)C[C@H]1[C@@H]3CC[C@](O)(C(=O)CO)[C@@]3(C)C[C@H](O)[C@@]12F , report its measured GI50.
> 100 µM (inactive)

For the compound shown here, CC(=O)CCCCC(=O)Nc1ccc(CC(NC(=O)OC(C)(C)C)C(=O)NCC(=O)OCc2ccccc2)cc1 (stereo not given) , give the reported GI50.
20.7 µM (inactive)

Form field: reported GI50 of C=CCOCn1cc(C)c(=O)[nH]c1=O
> 100 µM (inactive)

Next:
Which GI50 is listed for CC(C)(C)c1ccccc1NS(=O)(=O)c1ccccc1 ?
92 µM (inactive)

* * *

We begin with a simple list: items and their reported GI50.
- System: HOP-62
- protocol: NCI tumour cell line growth inhibition, 48 h
Activity calls are given as the source filed them. Cut-off read from the data, not from the text of the source: active = GI50 up to about 1.1 µM and inactive = higher.

Param readout= GI50; system= HOP-62; entry= COc1cc2c(c(OC)c1)C(=O)O[C@H](C)CCCC/C=C/C2 ; returns value.
8.15 µM (inactive)

* * *

- Tested on: A498
- protocol: NCI tumour cell line growth inhibition, 48 h
Calls of active or inactive are those of the source. No stated cut-off is given here; in the data, active = GI50 up to about 1.1 µM and inactive = higher.
parameter measured: GI50

Consider the worked cases shown below.
Value lookup for GI50; key = CCOc1ccccc1/N=N/c1ccc2oc(=O)c(C(=O)Nc3cccc(C)c3)cc2c1
42.5 µM (inactive)

For CCOC(=O)c1nc2cc(C(F)(F)F)ccc2nc1Nc1ccc(OC)c(OC)c1 , what is its reported GI50?
> 100 µM (inactive)

Which GI50 value is on record for COC(=O)[C@H](Cc1ccccc1)NC(=O)c1ccc(CNC(=O)/C=C/c2csc(-c3ccccc3)n2)cc1 ?
16.1 µM (inactive)

Given O=C1/C(=C/c2ccc(Cl)cc2)N=C(c2ccccc2)N1c1nc2c(Cl)cc(Cl)cc2s1 , state its recorded GI50.
18.2 µM (inactive)

Others:
Returns the measured GI50 for the input compound. Input: CN(C)CC1CCC/C(=C\c2ccc(Cl)cc2)C1=O (stereo unspecified)
17.3 µM (inactive)

For the compound C/C(C=O)=N\Nc1cc(C)c2ccccc2n1 , what GI50 is on record?
15.2 µM (inactive)

Which GI50 is reported for this compound? O=c1c(NCc2ccccc2)c(C2(c3ccccc3F)SCCCS2)c1=O
82.8 µM (inactive)

# lookup: GI50 of CCOC(=O)c1c(NC(=O)Nc2ccccc2)c(C(N)=O)c2n1CCCCC2
> 100 µM (inactive)

Looking for the measured GI50 of Nc1ncnc2c1ccn2CC=C(CO)CO , can you help?
> 100 µM (inactive)

Could you tell me which GI50 is on file for O=C(c1ccccc1)C(C(=O)c1ccccc1)c1nc2ccccc2sc1=O ?
> 25 µM (inactive)

Can you share its GI50? I mean this compound: CCOC(=O)c1cc2cc([N+](=O)[O-])ccc2oc1=O
> 100 µM (inactive)

* * *

- System: NCI-H460
- protocol: NCI tumour cell line growth inhibition, 48 h
Active and inactive are the calls of the source. Cut-off read from the data, not from the text of the source: active = GI50 up to about 1.1 µM and inactive = higher.
Please reply with one of these outcomes: active, inactive

Example results:
For this compound, state the assay outcome: C=Cc1nc2c(Cl)ncnc2n1Cc1ccccc1
inactive

Hi, sorry to bother you, what did the test record for CCOC(=O)C1=CNC(C(=O)OCC)C1c1cccn1-c1ccc(Cl)cc1[N+](=O)[O-] (stereo unspecified) ?
inactive

What was the test verdict on CC1=NN(c2ccccc2Cl)C2(C1)SCC(=O)N2c1nc2ccccc2s1 (stereo unspecified) ?
inactive

More entries:
Check the results log: what was the call for C(/Cc1ccc2c(c1)OCO2)=N\N=C1NCCCN1 ?
inactive

Check the results log: what was the call for COC(=O)C1C(O)C(C)C(O)OC1C(C)C(O)C(C)/C=C\C=C(/C)C(=O)Nc1c(C)c(OC(C)=O)c2c(c1O)C(=O)C(C)=C1OCOC(/C(C)=C/C(C)=O)=C12 (stereo unspecified) ?
inactive

Hi, sorry to bother you, what did the test record for NC1NCCC(=O)N1CCc1c[nH]c2ccccc12 (stereo unspecified) ?
inactive

Record request — test call for [O-][Cl+3]([O-])([O-])[O-].c1ccc(C[P+]2(c3ccccc3)CCCCC2)cc1
inactive

Please indicate how the test categorized Nc1ccn(C2OC(CO)C(O)C2(F)F)c(=O)n1 (stereo unspecified) .
active

* * *

- Tested on: Malme-3M
- protocol: NCI tumour cell line growth inhibition, 48 h
Active and inactive are the calls of the source. Rule as the data show it: active = GI50 up to about 1.1 µM and inactive = higher.
Each item that follows carries a reported GI50.

Suppose we examine the compound CCOP(=O)(CC(=O)C1CC1)OCC ; what GI50 value has been reported?
> 100 µM (inactive)

Given the compound Cc1csc2nc(-c3cc([N+](=O)[O-])c(Cl)cc3Cl)c(/C=N/N=C(N)N)n12 , what is its reported GI50?
17.8 µM (inactive)

State the recorded GI50 for this entry: CC(=O)Nc1cccc(N2C(=O)/C(=C\c3cccc(Oc4ccccc4)c3)SC2c2ccccc2)c1 (configuration not stated)
> 100 µM (inactive)

New cases:
GET /values?readout=GI50&item= O=S(=O)(O)c1cc(O)c2c(/N=C\c3ccccc3O)cc(S(=O)(=O)O)cc2c1
> 100 µM (inactive)

GET /values?readout=GI50&item= Clc1ccc(CSCc2ccc(Cl)cc2Cl)c(Cl)c1
28.2 µM (inactive)

GI50 for CCOc1ccc2c(c1)c(CC(=O)O)cn2C ?
> 100 µM (inactive)

* * *

- Tested on: UACC-257
- protocol: NCI tumour cell line growth inhibition, 48 h
Calls of active or inactive are those of the source. Rule as the data show it: active = GI50 up to about 1.1 µM and inactive = higher.
Use one of these outcomes when replying: T (active), F (inactive)

Short answer needed: outcome of this test for O=C(CSc1nnc(-c2ccc(/N=C\c3ccc(Cl)cc3)cc2)o1)Nc1ccc(Cl)cc1Cl ?
F

# outcome recorded in this test, key = Cc1ccc(S(=O)(=O)N/C(=N\O)Nc2ccc(Cl)c(Cl)c2)cc1
F

Name the outcome recorded for N#Cc1ccccc1/C=N/O in the assay.
F

Next:
// outcome(item) with item = Cc1cc(O)cc2oc(=O)c3c(O)cc(O)cc3c12
F
